Recorded inhibition by entry
systemTested: Interleukin-1 receptor-associated kinase 4 (Homo sapiens) (UniProt Q9NWZ3)
Sequence (Q9NWZ3 whole entry): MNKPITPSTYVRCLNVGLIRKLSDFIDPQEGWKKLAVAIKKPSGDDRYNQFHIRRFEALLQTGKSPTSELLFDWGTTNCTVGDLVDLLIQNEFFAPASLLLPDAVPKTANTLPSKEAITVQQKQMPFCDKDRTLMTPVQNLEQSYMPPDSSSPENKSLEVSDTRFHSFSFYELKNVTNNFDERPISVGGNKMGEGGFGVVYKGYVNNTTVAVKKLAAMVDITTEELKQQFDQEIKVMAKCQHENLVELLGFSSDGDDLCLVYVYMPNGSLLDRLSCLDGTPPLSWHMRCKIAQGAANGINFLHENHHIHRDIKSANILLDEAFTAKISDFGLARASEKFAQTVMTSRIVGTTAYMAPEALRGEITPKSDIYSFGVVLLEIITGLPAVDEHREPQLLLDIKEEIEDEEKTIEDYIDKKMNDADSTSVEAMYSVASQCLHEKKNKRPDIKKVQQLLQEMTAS
particulars: at 1 µM
Hi! Could you send only the number? It should be in %, unit omitted.

molecule	unitDescriptor	inhibition
O=C1Nc2ccc(I)cc2C1=Cc1cc(Br)c(O)c(Br)c1	%	2.1
C[C@@H](Oc1cc(-n2cnc3ccc(OCC4CCN(C)CC4)cc32)sc1C(N)=O)c1ccccc1Cl	%	6.25
COc1cccc(-n2cnc3c(N/N=C/c4ccncc4)ncnc32)c1	%	0.01
CN(C)c1ccc2c(c1)/C(=C/Nc1ccc(S(N)(=O)=O)cc1)C(=O)N2	%	0.86

Entry "CCS(=O)(=O)c1ccc(OC)c(Nc2ncc(-c3cccc(-c4ccccc4F)c3)o2)c1" , system Interleukin-1 receptor-associated kinase 4 (Homo sapiens) (UniProt Q9NWZ3): what inhibition was measured?;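 further: mean inhibition values, from the GSK PKIS dataset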
0.38

Entry to check: "Clc1ccc(CNc2nccc(-c3cnn4ncccc34)n2)cc1"
2.1

Check "COc1cc2ncn(-c3cc(OCc4cccs4)c(C(N)=O)s3)c2cc1OC" too.
1.66

Can you handle "CN(C)CCCNc1nccc(-c2c(-c3ccc(F)cc3)nn3cc(C(F)(F)F)ccc23)n1" next?
1.66

Same question for "NC(=O)c1cc(-c2ccc(F)cc2)cc(-c2ccncc2)c1N" please.
1.61

Entry to check: "CCc1ccc(Oc2nccc(-c3c(-c4ccc(F)cc4)ncn3C3CCNCC3)n2)cc1"
2.52

Next entry: "CCc1nccc2c1nc(-c1nonc1N)n2CC"
-1.82

Same question for "COc1cc2ncn(-c3cc(OCc4ccccc4C(F)(F)F)c(C(C)=O)s3)c2cc1OC" please.
1.4

###

systemTested: Vascular endothelial growth factor receptor 2 (Homo sapiens) (UniProt P35968)
Sequence (P35968 whole entry): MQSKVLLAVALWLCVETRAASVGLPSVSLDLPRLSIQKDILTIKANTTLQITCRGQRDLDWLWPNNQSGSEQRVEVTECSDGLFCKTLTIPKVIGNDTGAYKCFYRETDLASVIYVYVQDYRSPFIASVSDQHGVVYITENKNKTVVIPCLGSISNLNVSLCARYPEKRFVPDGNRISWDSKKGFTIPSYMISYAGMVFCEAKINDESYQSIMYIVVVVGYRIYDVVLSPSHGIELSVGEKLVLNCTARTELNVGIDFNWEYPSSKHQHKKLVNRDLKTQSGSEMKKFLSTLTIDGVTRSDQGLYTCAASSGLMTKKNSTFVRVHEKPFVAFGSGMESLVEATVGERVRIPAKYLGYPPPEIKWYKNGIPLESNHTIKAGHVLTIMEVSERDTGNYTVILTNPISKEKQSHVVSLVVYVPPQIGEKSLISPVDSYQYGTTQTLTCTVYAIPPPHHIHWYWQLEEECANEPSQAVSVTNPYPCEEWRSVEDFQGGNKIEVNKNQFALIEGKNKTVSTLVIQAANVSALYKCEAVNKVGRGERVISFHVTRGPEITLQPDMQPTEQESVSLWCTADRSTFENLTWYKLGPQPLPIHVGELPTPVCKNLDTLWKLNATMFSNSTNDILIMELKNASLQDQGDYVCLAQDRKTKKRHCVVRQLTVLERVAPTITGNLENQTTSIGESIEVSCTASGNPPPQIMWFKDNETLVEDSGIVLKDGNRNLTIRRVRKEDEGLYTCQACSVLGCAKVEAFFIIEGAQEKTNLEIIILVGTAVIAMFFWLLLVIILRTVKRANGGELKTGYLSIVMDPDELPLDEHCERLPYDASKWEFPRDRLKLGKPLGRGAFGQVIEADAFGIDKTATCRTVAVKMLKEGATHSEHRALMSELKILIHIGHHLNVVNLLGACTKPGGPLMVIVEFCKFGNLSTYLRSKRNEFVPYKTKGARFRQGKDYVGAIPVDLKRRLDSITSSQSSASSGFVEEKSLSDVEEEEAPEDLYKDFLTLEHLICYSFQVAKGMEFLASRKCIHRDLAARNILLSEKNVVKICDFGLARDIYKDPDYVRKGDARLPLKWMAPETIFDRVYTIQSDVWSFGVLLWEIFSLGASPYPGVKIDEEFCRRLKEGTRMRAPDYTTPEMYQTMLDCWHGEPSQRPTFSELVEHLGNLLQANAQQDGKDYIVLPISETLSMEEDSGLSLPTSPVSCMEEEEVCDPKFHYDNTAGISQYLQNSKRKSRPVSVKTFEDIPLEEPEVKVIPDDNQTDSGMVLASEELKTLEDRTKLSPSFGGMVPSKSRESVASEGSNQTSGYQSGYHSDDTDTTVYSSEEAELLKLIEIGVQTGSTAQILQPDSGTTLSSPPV
particulars: at 0.1 µM
Description: GSK_PKIS: KDR mean inhibition at 0.1 uM [Nanosyn]
Entries and their inhibition values follow.
Note: unit % is implicit; provide only the numeric part.

compound	systemTested	unitDescriptor	value
C[C@@H](Oc1cc(-n2cnc3ccc(OC4CCN(C)CC4)cc32)sc1C(N)=O)c1ccccc1Cl	Vascular endothelial growth factor receptor 2 (Homo sapiens) (UniProt P35968)	%	9.62
NC(=O)c1ccc(Oc2nccc(-c3c(-c4ccc(F)cc4)ncn3C3CCNCC3)n2)cc1	Vascular endothelial growth factor receptor 2 (Homo sapiens) (UniProt P35968)	%	4.96
CN1CCN(CCCNc2nc3ccc(Oc4ccc(NC(=O)Nc5cc(C(F)(F)F)ccc5F)cc4)cc3[nH]2)CC1	Vascular endothelial growth factor receptor 2 (Homo sapiens) (UniProt P35968)	%	38.6
COc1cc2ncn(-c3cc(OCc4ccccc4C(F)(F)F)c(C(C)=O)s3)c2cc1OC	Vascular endothelial growth factor receptor 2 (Homo sapiens) (UniProt P35968)	%	3.96
COc1cc(Nc2ncc3c(C)nc(-c4cccc(Oc5ccccc5)c4)n3n2)cc(OC)c1OC	Vascular endothelial growth factor receptor 2 (Homo sapiens) (UniProt P35968)	%	2.28
NCc1ccc(-n2c(-c3nonc3N)nc3cnccc32)cc1	Vascular endothelial growth factor receptor 2 (Homo sapiens) (UniProt P35968)	%	10.5
O=C(Nc1n[nH]c2nc(-c3ccco3)ccc12)C1CC1	Vascular endothelial growth factor receptor 2 (Homo sapiens) (UniProt P35968)	%	7.28
Fc1ccc(-c2ncn(C3CCNCC3)c2-c2ccnc(Oc3ccc(F)c(F)c3)n2)cc1	Vascular endothelial growth factor receptor 2 (Homo sapiens) (UniProt P35968)	%	6.78
Nc1nccc(-c2c(-c3ccc(F)cc3)ncn2C2CCC(O)CC2)n1 (centres undefined)	Vascular endothelial growth factor receptor 2 (Homo sapiens) (UniProt P35968)	%	2.29
CS(=O)(=O)CCNCc1ccc(-c2ccc3ncnc(Nc4ccc(OCc5ccccc5)c(Br)c4)c3c2)o1	Vascular endothelial growth factor receptor 2 (Homo sapiens) (UniProt P35968)	%	10.1

// lookup inhibition for "Cc1nnc(-c2ccc(C)c(-c3ccc(C(=O)NCc4ccc(Cl)cc4)cc3)c2)o1"
4.61

What about "NC(=O)c1cc(-c2ccc(F)cc2)cc(-c2ccncc2)c1N" ?
6

And "NC(=O)c1cc(-c2ccncc2)cc(-c2ccccc2)c1N" ?
3.91

Repeat with "Fc1ccc(-c2nc3n(c2-c2ccncc2)CCS3)cc1"
5.19

Queued: "O=C(Nc1n[nH]c2cc(-c3cc(F)ccc3F)ccc12)C1CC1"
6.28

// query: "COc1ccc(C2=C(N3CCc4ccccc43)C(=O)NC2=O)cc1"
8.98

What about this compound? COc1ccc2cc(-c3c(-c4ccncc4)nc(-c4ccc([S+](C)[O-])cc4C)n3C)ccc2c1 (centres undefined)
8.24

Also "CCN(CC)Cc1ccc(Nc2nccc(-c3cnn4ncccc34)n2)cc1" ?
7.19

Try the compound "Fc1ccc(-c2ncn(C3CCNCC3)c2-c2ccnc(Oc3ccc4c(c3)OCO4)n2)cc1"
9.3

Please give the result for "Cc1ccc(C(=O)NC2CCC2)cc1-c1ccc(C(=O)NCC2CC2)cc1" too.
3.33

###

systemTested: Platelet-derived growth factor receptor alpha (Homo sapiens);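 further: values are mean percent inhibition of PDGFRA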
particulars: at 1 µM
# binning rule on inhibition: Low: < 10%; Medium: ≥ 10% and < 20%; High: ≥ 20%

The examples below pair each entry with its known result.
compound	classLabel
Fc1ccc(-c2ncn(C3CCNCC3)c2-c2ccnc(Oc3ccc(F)c(F)c3)n2)cc1	Medium
CCS(=O)(=O)c1ccc(OC)c(Nc2ncc(-c3ccccc3Cl)o2)c1	Medium
CS(=O)(=O)CCNCc1ccc(-c2ccc3ncnc(Nc4ccc(OCc5ccccc5)c(Br)c4)c3c2)o1	Medium
O=C1Nc2ccccc2/C1=C/Nc1ccc(-n2cncn2)cc1	High
O=C(NCC1CC1)c1ccc(-c2cccc(C(=O)NC3CC3)c2)cc1	Low

Exercise: read the entry "COc1ccc(-c2ccc3c(NC(=O)C4CC4)n[nH]c3n2)cc1" and state which class it falls under.
Medium

Lookup "NC(=O)Cc1ccccc1Oc1nccc(-c2c(-c3ccc(F)cc3)ncn2C2CCNCC2)n1"
Low

Also "O=C1NC(=O)C(c2cccc(Cl)c2)=C1Nc1ccc(Cl)c(C(=O)O)c1" ?
Low

Same again, this time with "Fc1ccc(-c2nc3n(c2-c2ccncc2)CCS3)cc1"
Medium

Similarly, "C#Cc1cccc(Nc2ncnc3ccc(OCCCCNCCS(C)(=O)=O)cc23)c1" ?
High

Next compound: "NS(=O)(=O)c1ccc(N/N=C2\C(=O)Nc3ccc(-c4cnco4)cc32)cc1"
High

###

Test system: Epidermal growth factor receptor (Homo sapiens), P00533 [L861Q]
Sequence (P00533 whole entry L861Q): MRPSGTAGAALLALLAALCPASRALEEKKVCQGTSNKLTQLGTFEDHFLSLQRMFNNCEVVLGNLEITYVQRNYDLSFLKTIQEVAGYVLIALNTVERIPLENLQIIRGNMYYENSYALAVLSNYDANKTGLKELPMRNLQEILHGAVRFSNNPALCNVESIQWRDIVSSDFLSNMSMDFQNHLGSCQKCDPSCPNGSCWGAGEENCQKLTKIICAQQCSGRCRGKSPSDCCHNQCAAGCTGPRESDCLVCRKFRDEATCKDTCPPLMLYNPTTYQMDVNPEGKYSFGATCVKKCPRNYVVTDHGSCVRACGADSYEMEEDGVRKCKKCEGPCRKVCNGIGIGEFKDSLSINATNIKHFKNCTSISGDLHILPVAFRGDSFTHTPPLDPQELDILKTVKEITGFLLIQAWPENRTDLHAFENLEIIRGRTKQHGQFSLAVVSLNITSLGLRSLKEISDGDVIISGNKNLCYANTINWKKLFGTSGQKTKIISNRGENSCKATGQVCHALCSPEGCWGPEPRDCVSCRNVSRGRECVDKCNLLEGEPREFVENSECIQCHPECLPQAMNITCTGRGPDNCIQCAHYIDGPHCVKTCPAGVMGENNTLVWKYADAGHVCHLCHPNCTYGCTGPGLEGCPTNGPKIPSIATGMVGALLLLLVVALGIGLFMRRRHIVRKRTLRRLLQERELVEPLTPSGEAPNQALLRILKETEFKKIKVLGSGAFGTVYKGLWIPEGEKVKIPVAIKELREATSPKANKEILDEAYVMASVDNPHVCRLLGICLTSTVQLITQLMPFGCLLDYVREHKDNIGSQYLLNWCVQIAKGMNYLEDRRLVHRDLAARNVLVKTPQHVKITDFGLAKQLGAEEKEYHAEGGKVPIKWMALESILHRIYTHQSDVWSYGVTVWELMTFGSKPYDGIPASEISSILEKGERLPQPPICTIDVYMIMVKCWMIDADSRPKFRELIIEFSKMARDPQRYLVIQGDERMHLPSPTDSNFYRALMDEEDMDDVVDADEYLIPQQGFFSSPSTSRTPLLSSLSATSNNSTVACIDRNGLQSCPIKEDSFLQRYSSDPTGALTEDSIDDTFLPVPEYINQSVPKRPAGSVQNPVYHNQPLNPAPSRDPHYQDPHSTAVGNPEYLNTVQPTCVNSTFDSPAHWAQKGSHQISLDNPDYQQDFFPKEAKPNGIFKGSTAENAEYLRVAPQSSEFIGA
particulars: at 0.1 µM
# inhibition per record follows
Form entry: value (%) — number only.

Worked examples, 8 molecules total:
molecule	quantity	value
O=C(Nc1n[nH]c2nc(-c3ccc(O)cc3)c(Br)cc12)C1CC1	inhibition	6.22
CS(=O)(=O)CCNCc1ccc(-c2ccc3ncnc(Nc4ccc(OCc5ccccc5)c(Br)c4)c3c2)o1	inhibition	48.1
CCc1ccc(Oc2nccc(-c3c(-c4ccc(F)cc4)ncn3C3CCNCC3)n2)cc1	inhibition	1.97
COc1cc2ncn(-c3cc(OCCc4ccccc4)c(C(N)=O)s3)c2cc1OC	inhibition	0.8
C[C@@H](Oc1cc(-n2cnc3ccc(OC4CCN(C)CC4)cc32)sc1C(N)=O)c1ccccc1Cl	inhibition	2.71
C[C@@H](Oc1cc(-n2cnc3ccc(OCC4CCN(C)CC4)cc32)sc1C(N)=O)c1ccccc1Cl	inhibition	1.43
c1ccc(-c2n[nH]cc2-c2ccnc(-c3ccc(OCCN4CCOCC4)cc3)c2)nc1	inhibition	-0.15
CN1CCN(CCCNc2nc3ccc(Oc4ccc(NC(=O)Nc5cc(C(F)(F)F)ccc5F)cc4)cc3[nH]2)CC1	inhibition	0.67

Give its inhibition value. Item: "NS(=O)(=O)c1ccc(N/N=C2\C(=O)Nc3ccc(C(=O)NCCCn4ccnc4)cc32)cc1"
1.73

What do we get for "O=C(Nc1n[nH]c2nc(-c3ccco3)ccc12)C1CC1" ?
1.04

How about this molecule: "C/C(Nc1ccc(S(N)(=O)=O)cc1)=C1/C(=O)Nc2ccccc21"
0.08

Ok, now Nc1nccc(-c2c(-c3ccc(F)cc3)ncn2C2CCC(O)CC2)n1 (centres undefined)
4.44

And the next one, "CN(C)CCCNc1nccc(-c2c(-c3ccc(F)cc3)nn3cc(C(F)(F)F)ccc23)n1" ?
1.57

Also "Clc1ccc(CNc2nccc(-c3cnn4ncccc34)n2)cc1" , if possible.
-1.04

Now this one: "O=C1NC(=O)C(c2cccc(Cl)c2)=C1Nc1ccc(Cl)c(C(=O)O)c1"
1.41

Let us now turn to "Cc1ccc(C(=O)NC2CCC2)cc1-c1ccc(C(=O)NCC2CC2)cc1"
4.21

Similarly, "O=C(Nc1n[nH]c2cc(-c3cc(F)ccc3F)ccc12)C1CC1" ?
2.35

Quick one: "CNC(=O)c1cncc(/C=C/c2c(C)cccc2C)c1"
1.86

Now consider "COc1cccc(/C=N/Nc2ncnc3c2cnn3-c2cccc(OC)c2)c1" and answer again.
1.95

Now give it for "CN(C)c1ccc2c(c1)/C(=C/Nc1ccc(S(N)(=O)=O)cc1)C(=O)N2" too.
1.24

"COc1ccc2cc(-c3c(-c4ccncc4)nc(-c4ccc(S(C)(=O)=O)cc4C)n3C)ccc2c1" , same question.
2.4

Item: COc1ccc2cc(-c3c(-c4ccncc4)nc(-c4ccc([S+](C)[O-])cc4C)n3C)ccc2c1 (centres undefined)
-0.12

Next: "O=C(Nc1n[nH]c2cc(-c3ccccc3)ccc12)C1CC1"
4.05

Now the molecule "CCS(=O)(=O)c1ccc(OC)c(Nc2ncc(-c3ccccc3Cl)o2)c1"
2.33

Query "Fc1ccc(-c2c(-c3ccncc3)nc3n2CCS3)cc1" next
1.81

"COc1ccc(-c2ccc3c(NC(=O)C4CC4)n[nH]c3n2)cc1" , same question.
-0.19

Please do the same for "COc1ccc2ncn(-c3cc(O[C@H](C)c4ccccc4Cl)c(C(N)=O)s3)c2c1" as well.
3.26
